- System: DIPGX37 (H3.3 K27M diffuse intrinsic pontine glioma line)
- experimental protocol: EC50 (inflection of fitted growth-inhibition curve) (log10 M)
quantity measured: EC50 (log10 M)

A selection of reference data follows.
molecule: COC1=CC(c2cc3ccccc3[nH]2)=N/C1=C\c1[nH]c(C)cc1C [OBATOCLAX]
EC50 (log10 M): -5.01
--
molecule: CC(C)c1cc(-c2n[nH]c(=O)n2-c2ccc3c(ccn3C)c2)c(O)cc1O [GANETESPIB]
EC50 (log10 M): -7.76
--
molecule: C=C[C@]1(C)C[C@@H](OC(=O)CSC(C)(C)CNC(=O)[C@H](N)C(C)C)[C@]2(C)[C@H](C)CC[C@]3(CCC(=O)[C@H]32)[C@@H](C)[C@@H]1O [VALNEMULIN]
EC50 (log10 M): -4.79
--
molecule: O=C(N/N=C/c1ccc([N+](=O)[O-])o1)c1ccc(O)cc1 [NIFUROXAZIDE]
EC50 (log10 M): -4.75

According to the records, this molecule CN[C@H]1CC[C@@H](c2ccc(Cl)c(Cl)c2)c2ccccc21 [SERTRALINE] displays EC50 (log10 M) of -4.82

According to the records, this molecule CC[C@H](C)C(=O)O[C@H]1C[C@@H](C)C=C2C=C[C@H](C)[C@H](CC[C@@H]3C[C@@H](O)CC(=O)O3)[C@H]21 [LOVASTATIN] displays EC50 (log10 M) of -5.76

According to the records, this molecule CCOC(=O)CCNc1cc(N2CCc3ccccc3CC2)nc(-c2ccccn2)n1 [GSK-J4] displays EC50 (log10 M) of -4.9

According to the records, this molecule COc1cc(C(=O)N2CC[C@@H](O)[C@@H](N)C2)cc2nc(-c3cc4ccccc4n3CC3CC3)n(C)c12 [GSK-484] displays EC50 (log10 M) of -4.89
